Molecular target: TACR3 (Homo sapiens)
Construct: purchased Promega (in-house HiBiT-GPCR construct library, NanoBRET)
Sequence (P29371 whole entry): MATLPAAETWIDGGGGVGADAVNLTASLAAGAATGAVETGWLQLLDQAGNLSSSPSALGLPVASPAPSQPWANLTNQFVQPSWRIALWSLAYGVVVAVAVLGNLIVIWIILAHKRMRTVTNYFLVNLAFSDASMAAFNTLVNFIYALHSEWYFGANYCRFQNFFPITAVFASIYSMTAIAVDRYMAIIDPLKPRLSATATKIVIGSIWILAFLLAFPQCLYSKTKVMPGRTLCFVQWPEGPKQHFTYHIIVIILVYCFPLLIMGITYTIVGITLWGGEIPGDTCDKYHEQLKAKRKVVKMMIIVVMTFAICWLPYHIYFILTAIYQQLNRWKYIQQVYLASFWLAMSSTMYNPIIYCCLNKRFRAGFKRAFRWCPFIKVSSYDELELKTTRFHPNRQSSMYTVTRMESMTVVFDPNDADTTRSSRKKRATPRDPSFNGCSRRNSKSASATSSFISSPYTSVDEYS
Test: NanoBRET screen HiBiT-TACR3 in HEK293
Format: binding
Details: TACR3; tracer 1μM
Quick reference for NanoBRET Fold Response among some molecules
Number, no unit, nothing else.

Previously resolved entries follow.
molecule | measurement
O=C(CCc1ccc2n1[B-](F)(F)[N+]1=C(c3ccc[nH]3)C=CC1=C2)NCc1ccc(C(=O)NCCOCCC(=O)N[C@@H]2CC[C@@]3(O)[C@H]4Cc5ccc(O)c6c5[C@@]3(CCN4CC3CC3)[C@H]2O6)cc1 [Naltrexone-3-NB590] | 0.93
Cc1nc2n(c(=O)c1CCN1CCC(c3noc4cc(F)ccc34)CC1)CCCC2OC(=O)NCCOCCOCCOCCOCCNC(=O)CCc1ccc2n1[B-](F)(F)[N+]1=C(c3ccc[nH]3)C=CC1=C2 (stereo not shown) | 1.10
CC(C)N(CC[C@H](c1ccccc1)c1cc(CCNC(=O)CCOCCOCCOCCOCCNC(=O)CCc2ccc3n2[B-](F)(F)[N+]2=C(c4ccc[nH]4)C=CC2=C3)ccc1O)C(C)C | 1.08

Q. Look at this molecule and give its reported NanoBRET Fold Response. `N#CN=C(NCCCOc1cccc(CN2CCCCC2)c1)NCCNC(=O)CCOCCOCCOCCOCCNC(=O)CCc1ccc2n1[B-](F)(F)[N+]1=C(c3ccc[nH]3)C=CC1=C2`
A. 1.06

Q. Try the molecule `CC(C)N(CC[C@H](c1ccccc1)c1cc(CCNC(=O)c2ccc(CNC(=O)CCc3ccc4n3[B-](F)(F)[N+]3=C(c5ccc[nH]5)C=CC3=C4)cc2)ccc1O)C(C)C`
A. 1.06

Q. Please give the result for `O=C(CCc1ccc2n1[B-](F)(F)[N+]1=C(c3ccc[nH]3)C=CC1=C2)NCCOCCOCCNC(=O)OCCOCCN1CCN(C2=Nc3ccccc3Sc3ccccc32)CC1` too.
A. 0.83

Q. Same again, this time with `CCCn1c(=O)c2[nH]c(-c3ccc(OCC(=O)NCCNC(=O)CCOCCNC(=O)c4ccc(CNC(=O)CCc5ccc6n5[B-](F)(F)[N+]5=C(c7ccc[nH]7)C=CC5=C6)cc4)cc3)nc2n(CCC)c1=O`
A. 1.01

====

# NanoBRET Fold Response annotations
Target: HTR6 (Homo sapiens, UniProt P50406)
Construct: purchased Promega (in-house HiBiT-GPCR construct library, NanoBRET)
Sequence (P50406 whole entry): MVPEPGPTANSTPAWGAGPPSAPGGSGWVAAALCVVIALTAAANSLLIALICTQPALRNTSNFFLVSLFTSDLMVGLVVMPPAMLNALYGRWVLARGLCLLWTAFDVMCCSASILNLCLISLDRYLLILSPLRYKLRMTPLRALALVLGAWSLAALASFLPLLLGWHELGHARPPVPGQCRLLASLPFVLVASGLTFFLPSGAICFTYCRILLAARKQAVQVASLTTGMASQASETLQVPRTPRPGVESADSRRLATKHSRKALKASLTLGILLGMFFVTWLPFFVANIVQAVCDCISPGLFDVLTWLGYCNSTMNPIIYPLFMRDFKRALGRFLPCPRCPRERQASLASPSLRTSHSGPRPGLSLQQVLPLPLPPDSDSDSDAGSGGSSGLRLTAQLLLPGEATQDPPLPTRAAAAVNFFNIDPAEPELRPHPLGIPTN
Test: NanoBRET screen HiBiT-HTR6 in HEK293
Format: binding
Conditions: HTR6; tracer 1μM
# respond with the number and nothing more

Q. Item COc1ccccc1N1CCN(CCCCN2C(=O)c3ccc(CNC(=O)CCOCCOCCOCCOCCNC(=O)CCc4ccc5n4[B-](F)(F)[N+]4=C(c6ccc[nH]6)C=CC4=C5)cc3C2=O)CC1 [NAN-190-2-NB590] has what recorded NanoBRET Fold Response?
A. 1.04

Q. Similarly, CC(C)N(CC[C@H](c1ccccc1)c1cc(CCNC(=O)c2ccc(CNC(=O)CCc3ccc4n3[B-](F)(F)[N+]3=C(c5ccc[nH]5)C=CC3=C4)cc2)ccc1O)C(C)C [Tolterodine-BZ-NB590] ?
A. 1.05

Q. N#CN=C(NCCCOc1cccc(CN2CCCCC2)c1)NCCNC(=O)CCOCCOCCOCCOCCNC(=O)CCc1ccc2n1[B-](F)(F)[N+]1=C(c3ccc[nH]3)C=CC1=C2 [Aminopotentidine-2-NB590] , same question.
A. 1.03

Q. And O=C(CCOCCOCCOCCOCCNC(=O)CCc1ccc2n1[B-](F)(F)[N+]1=C(c3ccc[nH]3)C=CC1=C2)NCCCN1CCN(C2=Nc3ccccc3Oc3ccc(Cl)cc32)CC1 [Loxapine-a-2-NB590] ?
A. 1.21

Q. Now this one: CC(C)N(CC[C@H](c1ccccc1)c1cc(CCNC(=O)CCOCCOCCOCCOCCNC(=O)CCc2ccc3n2[B-](F)(F)[N+]2=C(c4ccc[nH]4)C=CC2=C3)ccc1O)C(C)C [Tolterodine-2-NB590]
A. 0.96
